The values you see were collected from paper PMC12095047.

compounds and their reported Kd
molecular target: PIN8 (Arabidopsis thaliana, UniProt Q9LFP6); construct: made in house; test: SSM electrophysiology, KD by inhibition of the NPA binding current; details: inhibition of peak current elicited by 100 µM NPA; read-out: KD of substrate binding by PIN8
Sequence (Q9LFP6 whole entry): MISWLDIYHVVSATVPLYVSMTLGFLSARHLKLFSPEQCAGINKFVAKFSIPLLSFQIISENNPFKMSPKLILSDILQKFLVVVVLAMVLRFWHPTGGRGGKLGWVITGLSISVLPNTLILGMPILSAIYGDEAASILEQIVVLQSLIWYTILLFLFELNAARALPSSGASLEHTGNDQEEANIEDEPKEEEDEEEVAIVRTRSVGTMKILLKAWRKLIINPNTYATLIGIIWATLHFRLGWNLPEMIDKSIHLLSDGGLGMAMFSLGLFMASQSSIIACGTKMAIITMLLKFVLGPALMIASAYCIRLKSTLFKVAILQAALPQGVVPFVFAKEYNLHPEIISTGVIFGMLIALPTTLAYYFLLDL
measured_parameter: Kd (µM)

- O=C(O)COc1ccc(Cl)cc1Cl: 59
- Cc1ccc(OCC(=O)O)c(C)c1: 174

----------
biological target: PIN8 (Arabidopsis thaliana); construct: made in house; assay: SSM electrophysiology, KD by inhibition of the NPA binding current; conditions: 1000 µM substrate; 100 µM NPA; individual sensors; read-out: Rel. Inhibition of NPA peak currents
Record true (1) whenever inhibition at 1000 µM is at 70% or higher; record false (0) when lower.

- O=C(O)COc1ccccc1Cl: true (1)
- O=C(O)COc1ccc(Cl)cc1: true (1)
- Cc1ccc(OCC(=O)O)cc1: false (0)
- Cc1ccc(OCC(=O)O)c(C)c1: true (1)
- Cc1ccccc1OCC(=O)O: true (1)
